# Test system: WT1 peptide loaded autologous APC
# method_description: Cr51 release assay, cytotoxic CTL response vs peptide loaded autologous APC
# Format: cell-based, human
# run_parameters: HLA allele B3501; 50:1 E:T
Where a SMILES comes first, the peptide text is derived from it.
endpoint: Cytotoxic CTL response, % vs WT1 peptide loaded autologous APC

Determine from records and report Cytotoxic CTL response, % vs WT1 peptide loaded autologous APC for C[C@@H](O)[C@H](NC(=O)[C@@H](NC(=O)[C@H](Cc1c[nH]cn1)NC(=O)[C@H](CC(N)=O)NC(=O)[C@H](CC(=O)O)NC(=O)[C@H](CO)NC(=O)[C@H](CCC(=O)O)NC(=O)[C@H](Cc1ccc(O)cc1)NC(=O)CN)[C@@H](C)O)C(=O)O [SEQ ID NO: 178] (H-GYESDNHTT-OH; N-terminus and C-terminus assumed)
35%
